Recorded values, source the Human Domainome abundance scans (Beltran et al. 2025).

B1: Transitional endoplasmic reticulum ATPase, residues 26 to 106; numbered along this chain, P55072 (parent)
chain: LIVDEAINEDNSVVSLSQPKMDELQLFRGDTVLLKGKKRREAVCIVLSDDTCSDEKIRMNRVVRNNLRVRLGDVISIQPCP

Variants of: B1
Assay: abundance fitness (aPCA) (normalised: wild type 0, dead -1); higher = more abundant; growth selection in yeast, the domain comes from the species named
Settings: Homo sapiens
Output Met for abundance fitness not less than -0.08; output Not met otherwise.

Here's what some known entries look like.
   mutant_code    group
0         R68S      Met
1         V46R  Not met
2         N11T      Met
3          E9L  Not met
4         K20C  Not met

Prompt: Assess whether reported abundance fitness for `P79F` sits at -0.08 or higher.
Response: Met

Prompt: Assess whether reported abundance fitness for `R68N` sits at -0.08 or higher.
Response: Not met

Prompt: Assess whether reported abundance fitness for `E5S` sits at -0.08 or higher.
Response: Met

Prompt: Assess whether reported abundance fitness for `D49R` sits at -0.08 or higher.
Response: Not met

Prompt: Assess whether reported abundance fitness for `D54R` sits at -0.08 or higher.
Response: Not met
